B1: LINE1-full (parent)
chain: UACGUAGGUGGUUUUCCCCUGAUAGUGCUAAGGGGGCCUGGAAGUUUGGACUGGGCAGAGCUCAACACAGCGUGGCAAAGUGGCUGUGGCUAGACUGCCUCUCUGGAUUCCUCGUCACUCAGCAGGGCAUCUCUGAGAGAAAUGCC

Variants of: B1
Assay: self-cleavage, relative activity (ratio to wild type); higher = more cleavage; in vitro, sequencing; the parent is a self-cleaving ribozyme
So basically: self-cleavage at 1 or higher? That is true (1). Lower than 1? That is false (0).

UACGUAGGUGGUUUUCCCCUGAUAGUGCUAAGGGGGCCUGGGAGUUUGGACUGGGCAGAGCUCAACACAGCGUGGCAAAGUGGCUGUGGCUAGACUGCCUCUCUGGAUUCCUCGUCACUCAGCAGGGCAUCUCUGAGAGAAAAGCC [A42G U143A] : true (1)
UACGUAGGUGGUUUUCCCCUGAUAGUGCUAAGGGGGCCUGGAAGUUUGGACUGGGCAGAGCUCAACACAGCGUGGCAAAGUGGCUGUGGCUAGACUGCCUCUCUGGAUUCCUCGUCACUCAGCUGGGCAUCUCUGGGAGAAAUGCC [A124U A136G] : true (1)
UACGUAGGUGGUUUUCCCCUGAUAGUGCUAAGGGGGCCUGGAAGUUUGGACUGGGCAGAGCUCAACACAGCGUGGCAAAGUGGCUGAGGCUAGACUGCCUCUCUGGAUUCCUCGUCACUCUGCAGGGCAUCUCUGAGAGAAAUGCC [U87A A121U] : false (0)
UACGUAGGUGGGUAUCCCCUGAUAGUGCUAAGGGGGCCUGGAAGUUUGGACUGGGCAGAGCUCAACACAGCGUGGCAAAGUGGCUGUGGCUAGACUGCCUCUCUGGAUUCCUCGUCACUCAGCAGGGCAUCUCUGAGAGAAAUGCC [U12G U14A] : false (0)
UACGUAGGUGGUUAUCCCCUGAUAGUGCUAAGGGGGCCUGGAAGUUUGGACUGGGCAGAGCUCAACACAGCGUGGCAAAGUGGCUGUGGCUAGACUGCCUCUCUGGGUUCCUCGUCACUCAGCAGGGCAUCUCUGAGAGAAAUGCC [U14A A107G] : true (1)
UGCGUAGGUGGUUUUCCCCUGAUAGUGCUAAGGGGGCCUGGAAGUUUGGACUGGGCAGAGCUCAACACAGCGUGGCAAAGUGGCUGUGGCUAGUCUGCCUCUCUGGAUUCCUCGUCACUCAGCAGGGCAUCUCUGAGAGAAAUGCC [A2G A94U] : false (0)
UACGUAGGUGGUUUUCCCCUGAUAGUGCUAAGGGGGCCUGGAAGUUUGGACUGGGCAGAGCUCAACACAGCGUGGCAAAGUGGCUGUGGCUAGACUCCCUCUCUGUAUUCCUCGUCACUCAGCAGGGCAUCUCUGAGAGAAAUGCC [G97C G106U] : false (0)
UACGUAGGUGGUUUUCCCCUGAUAAUGCUAAGGGGGCCUGGAAGUUUGGACUGGGCAGAGCUCAACACAGCGUGGCAAAGUGGCUGUGGCUAGACUGCCUCUCUGGAUUCCUCGUCACUCAGCAGGGCAUCUCUGAGAGAACUGCC [G25A A142C] : true (1)
UACGUAGGUGGUUUUCCCCUGAUAGUGCUAAGGGGGCCUGGAAAUUUGGACUGGGCAGAGCUCAACACAGCGUGGCAAAGUGGCUGUGGCUAGACUGCCUCUCUGGAUUCCUCGUCACUCAGCAGGGCAUCUCUGAGGGAAAUGCC [G44A A138G] : true (1)
UACGUAGGUGGUUUUCCCCUGAUAGUGCUAAGGGGGCCUGGAAGUUUGGACUGGGCAGAGCUCAACACAGCGUGGCAAAGUGGCUGUGGCUAGACUGCCUCUCCGGAUUCCUCGUCUCUCAGCAGGGCAUCUCUGAGAGAAAUGCC [U104C A117U] : true (1)
UACGUAGGUGGUUUUCCCCUGAUAGUGCUAAGGGGGCCUGGAAGUUUGGACUGGGCGGAGCUCAACACAGCGUGGCAAGGUGGCUGUGGCUAGACUGCCUCUCUGGAUUCCUCGUCACUCAGCAGGGCAUCUCUGAGAGAAAUGCC [A57G A79G] : true (1)

Hey, just so you know, these numbers are from the RNAGym collection of RNA variant scans (doi:10.7554/elife.90254).
